For each record, write down the corresponding IC50.
Tested on: CCRF-CEM
experimentalDetails: Cytotoxicity against human CCRF-CEM cells after 3 days by XTT assay
Format: functional, cell-based
conditionContext: 72 h
The reply should contain only the number, in µM.

Need IC50 of `OC[C@H]1O[C@@H](n2ccc3c(-c4nccs4)ncnc32)[C@H](O)[C@@H]1O` , thanks.
0.39

Moving on to `OC[C@H]1O[C@@H](n2cc(Cl)c3c(-c4ccsc4)ncnc32)[C@H](O)[C@@H]1O`
1

Moving on to `OC[C@H]1O[C@@H](n2ccc3c(-c4ccn[nH]4)ncnc32)[C@H](O)[C@@H]1O`
0.91

Moving on to `OC[C@H]1O[C@@H](n2ccc3c(-c4cccs4)ncnc32)[C@H](O)[C@@H]1O`
0.29

Moving on to `OC[C@H]1O[C@@H](n2ccc3c(-c4ccc[se]4)ncnc32)[C@H](O)[C@@H]1O`
1.5
